These entries and their values trace back to the Human Domainome abundance scans (Beltran et al. 2025).

B1: Proto-oncogene vav, residues 782 to 842; numbered along this chain, P15498 (parent)
chain: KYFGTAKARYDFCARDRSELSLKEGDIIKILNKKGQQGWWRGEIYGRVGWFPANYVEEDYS

Variants of: B1
measurement-protocol: abundance fitness (aPCA) (normalised: wild type 0, dead -1); higher = more abundant; growth selection in yeast, the domain comes from the species named
experimental-conditions: Homo sapiens
Parameter threshold = -0.3. Response is true when abundance fitness meets or exceeds it, else false.

KYFGTAKARYDFCARDRSELSLKEGDIIKILIKKGQQGWWRGEIYGRVGWFPANYVEEDYS [N32I] ... false
KYFGTAKARYDFCARDRSELSLKEGDIIKILNKVGQQGWWRGEIYGRVGWFPANYVEEDYS [K34V] ... true
KYFGTAKARYDGCARDRSELSLKEGDIIKILNKKGQQGWWRGEIYGRVGWFPANYVEEDYS [F12G] ... false
KYFGTAKARYDFCARDRSELSLKEGDIIKILNKKGQQGWWRGEIYGRVGWFVANYVEEDYS [P52V] ... false
KYFGTAKARYDFCARDRSELSLKEGDIIKLLNKKGQQGWWRGEIYGRVGWFPANYVEEDYS [I30L] ... false
KYFGTAKARYDFCARDRSELSLKEGDIIKILNKKGQQGWWRGEIYGRVGWFPANYVEEDYV [S61V] ... true
KYFGTAKARYDFCARDRSELSLKEGDIIKILNKKDQQGWWRGEIYGRVGWFPANYVEEDYS [G35D] ... true
KYFGTAKARYDFCARDRSELSLKEGDIIKILNKKGQQGWWRFEIYGRVGWFPANYVEEDYS [G42F] ... false
KYFGTAKARYDFCARDRSELSLKEGDIIKILNTKGQQGWWRGEIYGRVGWFPANYVEEDYS [K33T] ... false
KYFGTAKARYDFCARDRSELSLKEGDIIKILNKKGQQGWWRGWIYGRVGWFPANYVEEDYS [E43W] ... false
KYFGTAKARYDFCARDRSELSLKEGDICKILNKKGQQGWWRGEIYGRVGWFPANYVEEDYS [I28C] ... false
KYFGTAKARYDFCARDRSELSLKEGDIIKILNKKGQQGWWCGEIYGRVGWFPANYVEEDYS [R41C] ... true
KYFGTAKARYDFCARDRSELSLKEGDIIKILNKKGQQGWWRGEIYGRVGWFPKNYVEEDYS [A53K] ... true
KYFGTAKARYDFCARDRSELSLKEGDIIKILNKKGQQGWWRGEIYGRVGWFPAKYVEEDYS [N54K] ... true
KYFGTAKARYDFCARDRSELSLKEGDIIKILNKKGQQGWWRGEIYGRYGWFPANYVEEDYS [V48Y] ... true
KYFGTAKARMDFCARDRSELSLKEGDIIKILNKKGQQGWWRGEIYGRVGWFPANYVEEDYS [Y10M] ... true
KYFGTAKARYDFCARDRSELSMKEGDIIKILNKKGQQGWWRGEIYGRVGWFPANYVEEDYS [L22M] ... true
KYFGTAKARYDFCARDRSELSLKEGDIIKILNKKGQAGWWRGEIYGRVGWFPANYVEEDYS [Q37A] ... true
KYFGTAKARYDFCARDRSELSLKEGDIIKILNKHGQQGWWRGEIYGRVGWFPANYVEEDYS [K34H] ... true
KYFGTAKARYDFCARDRSELSLKEGDIIKILNKTGQQGWWRGEIYGRVGWFPANYVEEDYS [K34T] ... true
KYFGTAKARYDFCARDRSELSLKEGDIIKILNKKGQQGWWRGEIVGRVGWFPANYVEEDYS [Y45V] ... true
KYFGTAKARYDFCARDRSELSLKEFDIIKILNKKGQQGWWRGEIYGRVGWFPANYVEEDYS [G25F] ... false
KYTGTAKARYDFCARDRSELSLKEGDIIKILNKKGQQGWWRGEIYGRVGWFPANYVEEDYS [F3T] ... true
